Reported microsomal CLint values for the following compounds.
measurement-protocol: Metabolic stability in rat liver microsomes
Type: ADME, Microsome
measurement-parameters: read-out: Stability

- compound: "O=C(CC(CS(=O)(=O)c1ccc2ccccc2c1)c1ccccc1)N[C@@H]1CCCc2cc(CN3CCCCC3)ccc21 (stereo partly specified)"
  microsomal CLint, µL/min/mg: 167
- compound: "O=C(N[C@@H]1CCCc2cc(CN3CCCCC3)ccc21)[C@H](O)[C@H](O)CS(=O)(=O)c1cccc(Cl)c1Cl"
  microsomal CLint, µL/min/mg: 50
- compound: "O=C(CCCS(=O)(=O)c1ccc2ccccc2c1)N[C@@H]1CCCc2cc(CN3CCCCC3)ccc21"
  microsomal CLint, µL/min/mg: 100
- compound: "CO[C@@H](CC(=O)N[C@@H]1CCCc2cc(CN3CCCCC3)ccc21)CS(=O)(=O)c1ccc2ccccc2c1"
  microsomal CLint, µL/min/mg: 316
- compound: "O=C(N[C@@H]1CCCc2cc(CN3CCCCC3)ccc21)[C@@H](O)CCS(=O)(=O)c1ccc2ccccc2c1"
  microsomal CLint, µL/min/mg: 143
- compound: "O=C(N[C@@H]1CCCc2cc(CN3CCCCC3)ccc21)[C@H](O)[C@H](O)CS(=O)(=O)c1ccc(Cl)c(Cl)c1"
  microsomal CLint, µL/min/mg: 193
- compound: "CC(C)(C)c1ccc(S(=O)(=O)C[C@@H](O)[C@@H](O)C(=O)N[C@@H]2CCCc3cc(CN4CCCCC4)ccc32)cc1"
  microsomal CLint, µL/min/mg: 50
- compound: "O=C(N[C@@H]1CCCc2cc(CN3CCCCC3)ccc21)[C@H](O)[C@H](O)CS(=O)(=O)c1cccc(Cl)c1"
  microsomal CLint, µL/min/mg: 139
- compound: "O=C(N[C@@H]1CCCc2cc(CN3CCCCC3)ccc21)[C@H](O)CCS(=O)(=O)c1ccc2ccccc2c1"
  microsomal CLint, µL/min/mg: 50
- compound: "O=C(C[C@@H](NS(=O)(=O)c1ccc2ccccc2c1)c1ccccc1)N[C@@H]1CCCc2cc(CN3CCCCC3)ccc21"
  microsomal CLint, µL/min/mg: 572
- compound: "O=C(C[C@H](O)CS(=O)(=O)c1ccc2ccccc2c1)N[C@@H]1CCCc2cc(CN3CCCCC3)ccc21"
  microsomal CLint, µL/min/mg: 100

----------
Reported microsomal CLint values for the following compounds.
measurement-protocol: Metabolic stability in human liver microsomes
Format: ADME, Microsome
measurement-parameters: read-out: Stability
measurement-kind: microsomal CLint (µL/min/mg)

- structure-notation: "CO[C@H](CCS(=O)(=O)c1ccc2ccccc2c1)C(=O)N[C@@H]1CCCc2cc(CN3CCCCC3)ccc21"
  measurement-kind: "microsomal CLint"
  units-label: "µL/min/mg"
  measurement: 216
- structure-notation: "O=C(N[C@@H]1CCCc2cc(CN3CCCCC3)ccc21)[C@H](O)[C@H](O)CS(=O)(=O)c1ccc(Cl)c(Cl)c1"
  measurement-kind: "microsomal CLint"
  units-label: "µL/min/mg"
  measurement: 100
- structure-notation: "O=C(N[C@@H]1CCCc2cc(CN3CCCCC3)ccc21)[C@@H](O)CCS(=O)(=O)c1ccc2ccccc2c1"
  measurement-kind: "microsomal CLint"
  units-label: "µL/min/mg"
  measurement: 100
- structure-notation: "O=C(N[C@@H]1CCCc2cc(CN3CCCCC3)ccc21)[C@H](O)CCS(=O)(=O)c1ccc2ccccc2c1"
  measurement-kind: "microsomal CLint"
  units-label: "µL/min/mg"
  measurement: 100
- structure-notation: "O=C(C[C@@H](NS(=O)(=O)c1ccc2ccccc2c1)c1ccccc1)N[C@@H]1CCCc2cc(CN3CCCCC3)ccc21"
  measurement-kind: "microsomal CLint"
  units-label: "µL/min/mg"
  measurement: 919
- structure-notation: "O=C(N[C@@H]1CCCc2cc(CN3CCCCC3)ccc21)[C@H](O)[C@H](O)CS(=O)(=O)c1ccc(C(F)(F)F)cc1"
  measurement-kind: "microsomal CLint"
  units-label: "µL/min/mg"
  measurement: 50
- structure-notation: "O=C(N[C@@H]1CCCc2cc(CN3CCCCC3)ccc21)[C@H](O)[C@H](O)CS(=O)(=O)c1ccccc1"
  measurement-kind: "microsomal CLint"
  units-label: "µL/min/mg"
  measurement: 319

----------
measurement-protocol: Metabolic stability in human liver microsomes
Format: ADME, Microsome
measurement-parameters: read-out: Stability

- compound: "O=C(N[C@@H]1CCCc2cc(CN3CCCCC3)ccc21)[C@H](O)[C@H](O)CS(=O)(=O)c1cccc(Cl)c1Cl"
  microsomal CLint: "214 µL/min/mg"
- compound: "O=C(N[C@@H]1CCCc2cc(CN3CCCCC3)ccc21)[C@H](O)[C@H](O)CS(=O)(=O)c1cccc(Cl)c1"
  microsomal CLint: "180 µL/min/mg"
- compound: "O=C(CCCS(=O)(=O)c1ccc2ccccc2c1)N[C@@H]1CCCc2cc(CN3CCCCC3)ccc21"
  microsomal CLint: "50 µL/min/mg"
- compound: "Cc1ccc(S(=O)(=O)C[C@@H](O)[C@@H](O)C(=O)N[C@@H]2CCCc3cc(CN4CCCCC4)ccc32)cc1"
  microsomal CLint: "50 µL/min/mg"
- compound: "CC(C)(C)c1ccc(S(=O)(=O)C[C@@H](O)[C@@H](O)C(=O)N[C@@H]2CCCc3cc(CN4CCCCC4)ccc32)cc1"
  microsomal CLint: "296 µL/min/mg"
- compound: "O=C(C[C@H](O)CS(=O)(=O)c1ccc2ccccc2c1)N[C@@H]1CCCc2cc(CN3CCCCC3)ccc21"
  microsomal CLint: "112 µL/min/mg"
- compound: "CO[C@@H](CC(=O)N[C@@H]1CCCc2cc(CN3CCCCC3)ccc21)CS(=O)(=O)c1ccc2ccccc2c1"
  microsomal CLint: "274 µL/min/mg"
- compound: "O=C(CC(CS(=O)(=O)c1ccc2ccccc2c1)c1ccccc1)N[C@@H]1CCCc2cc(CN3CCCCC3)ccc21 (stereo partly drawn)"
  microsomal CLint: "744 µL/min/mg"

----------
target-or-test-system: B1 bradykinin receptor (Oryctolagus cuniculus, UniProt P48748)
Sequence (P48748 whole entry): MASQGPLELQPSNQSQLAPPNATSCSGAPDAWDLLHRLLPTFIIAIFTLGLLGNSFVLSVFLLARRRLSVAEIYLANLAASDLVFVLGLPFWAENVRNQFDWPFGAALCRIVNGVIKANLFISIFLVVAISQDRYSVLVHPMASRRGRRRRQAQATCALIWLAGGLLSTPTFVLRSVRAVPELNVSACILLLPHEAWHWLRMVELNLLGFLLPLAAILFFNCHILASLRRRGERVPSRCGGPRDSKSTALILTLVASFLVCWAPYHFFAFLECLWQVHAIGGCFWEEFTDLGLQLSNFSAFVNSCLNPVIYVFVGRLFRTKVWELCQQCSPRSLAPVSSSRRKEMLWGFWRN
measurement-protocol: Antagonist activity at rabbit bradykinin B1 receptor expressed in clone CHO-D-/aequorin cells by aquerin based assay
Reported IC50 values for the following molecules.

- structure-notation: "O=C(N[C@@H]1CCCc2cc(CN3CCCCC3)ccc21)[C@H](O)[C@H](O)CS(=O)(=O)c1ccc(Cl)c(Cl)c1"
  IC50 / nM: 20.3
- structure-notation: "O=C(N[C@@H]1CCCc2cc(CN3CCCCC3)ccc21)[C@H](O)[C@H](O)CS(=O)(=O)c1ccc(C(F)(F)F)cc1"
  IC50 / nM: 210
- structure-notation: "CC(C)(C)c1ccc(S(=O)(=O)C[C@@H](O)[C@@H](O)C(=O)N[C@@H]2CCCc3cc(CN4CCCCC4)ccc32)cc1"
  IC50 / nM: 25.3

----------
target-or-test-system: B1 bradykinin receptor (Homo sapiens, UniProt P46663)
Sequence (P46663 whole entry): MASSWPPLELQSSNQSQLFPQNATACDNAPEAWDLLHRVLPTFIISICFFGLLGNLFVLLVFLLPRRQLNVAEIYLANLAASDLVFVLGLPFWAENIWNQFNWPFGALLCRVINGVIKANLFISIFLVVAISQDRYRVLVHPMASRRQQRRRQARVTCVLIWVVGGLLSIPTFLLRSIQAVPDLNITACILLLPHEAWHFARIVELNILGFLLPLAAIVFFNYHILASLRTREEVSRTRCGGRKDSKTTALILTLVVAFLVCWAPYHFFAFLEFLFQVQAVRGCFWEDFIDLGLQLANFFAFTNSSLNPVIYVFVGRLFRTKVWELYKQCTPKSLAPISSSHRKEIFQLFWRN
measurement-protocol: Displacement of [3H]DAK from human bradykinin B1 receptor expressed in clone CHO-D-/aequorin cells
pKi: −log10 of the molar value.

- compound: "O=C(N[C@@H]1CCCc2cc(CN3CCCCC3)ccc21)[C@H](O)[C@H](O)CS(=O)(=O)c1ccc(C(F)(F)F)cc1"
  pKi: 7.32
- compound: "O=C(N[C@@H]1CCCc2cc(CN3CCCCC3)ccc21)[C@@H](O)CCS(=O)(=O)c1ccc2ccccc2c1"
  pKi: 7.72
- compound: "O=C(C[C@@H](O)CS(=O)(=O)c1ccc2ccccc2c1)N[C@@H]1CCCc2cc(CN3CCCCC3)ccc21"
  pKi: 7.00
- compound: "O=C(N[C@@H]1CCCc2cc(CN3CCCCC3)ccc21)[C@H](O)[C@H](O)CS(=O)(=O)c1ccc(Cl)c(Cl)c1"
  pKi: 7.77
- compound: "O=C(CC(CS(=O)(=O)c1ccc2ccccc2c1)c1ccccc1)N[C@@H]1CCCc2cc(CN3CCCCC3)ccc21 (stereo partly drawn)"
  pKi: 8.82
- compound: "O=C(N[C@@H]1CCCc2cc(CN3CCCCC3)ccc21)[C@H](O)CCS(=O)(=O)c1ccc2ccccc2c1"
  pKi: 7.63
- compound: "CC(C)(C)c1ccc(S(=O)(=O)C[C@@H](O)[C@@H](O)C(=O)N[C@@H]2CCCc3cc(CN4CCCCC4)ccc32)cc1"
  pKi: 7.80
- compound: "O=C(C[C@H](O)CS(=O)(=O)c1ccc2ccccc2c1)N[C@@H]1CCCc2cc(CN3CCCCC3)ccc21"
  pKi: 7.38
